- measurement_notes: Highest frequency of acute liver toxicity observed during clinical trials, expressed as a percentage. [column '% AIGUE' in source]
- cond: human
endpoint: Hepatotoxicity (acute) (%)
Respond numerically; units are % and should not be typed.

Observe how each entry below is paired with its result.
>>> reported_value("NC[C@H]1O[C@H](O[C@H]2[C@H](O)[C@@H](O[C@H]3O[C@H](CO)[C@@H](O)[C@H](N)[C@H]3O)[C@H](N)C[C@@H]2N)[C@H](N)C[C@@H]1O [TOBRAMYCIN]")
0
>>> reported_value("CC(=O)N[C@H]1[C@@H](O[C@H]2[C@H](O)[C@@H](O)[C@H](O[C@H]3[C@H](CS(=O)(=O)O)[C@@H](OS(=O)(=O)O)[C@@H](O[C@H]4[C@H](O)[C@@H](OS(=O)(=O)O)C(O)O[C@H]4C(=O)O)O[C@@H]3O)O[C@@H]2C(=O)O)O[C@H](COS(=O)(=O)O)[C@@H](O)[C@@H]1O (stereo partly specified) [SODIUM HEPARIN]")
0
>>> reported_value("Cc1[nH]c(=O)c(C#N)cc1-c1ccncc1 [MILRINONE]")
0

What value of Hepatotoxicity (acute) has been reported for the following compound? CCCNCC(O)COc1ccccc1C(=O)CCc1ccccc1 (stereo unspecified) [PROPAFENONE]
7.7

What value of Hepatotoxicity (acute) has been reported for the following compound? NCCC(O)(P(=O)(O)O)P(=O)(O)O [PAMIDRONIC ACID]
0

What value of Hepatotoxicity (acute) has been reported for the following compound? O=C(O)c1cc(/N=N/c2ccc(O)c(C(=O)O)c2)ccc1O [OLSALAZINE]
0

What value of Hepatotoxicity (acute) has been reported for the following compound? COc1cccc(C2(O)CCCCC2CN(C)C)c1 (stereo unspecified) [TRAMADOL]
0

What value of Hepatotoxicity (acute) has been reported for the following compound? O=C(O)CCc1nc(-c2ccccc2)c(-c2ccccc2)o1 [OXAPROZIN]
0.1

What value of Hepatotoxicity (acute) has been reported for the following compound? CC(=O)OCC(=O)[C@@]1(O)CC[C@H]2[C@@H]3CCC4=CC(=O)C=C[C@]4(C)[C@@]3(F)[C@@H](O)C[C@@]21C [ISOFLUPREDONE ACETATE]
0

What value of Hepatotoxicity (acute) has been reported for the following compound? COc1cc2c(cc1OC)C(=O)C(CC1CCN(Cc3ccccc3)CC1)C2 (stereo unspecified) [DONEPEZIL]
0

What value of Hepatotoxicity (acute) has been reported for the following compound? O=C(Oc1ccccc1C(=O)O)c1ccccc1O [SALSALATE]
5

What value of Hepatotoxicity (acute) has been reported for the following compound? CN1CCC[C@@H]1CCO[C@](C)(c1ccccc1)c1ccc(Cl)cc1 [CLEMASTINE]
0

What value of Hepatotoxicity (acute) has been reported for the following compound? Clc1ccc(COC(Cn2ccnc2)c2ccc(Cl)cc2Cl)c(Cl)c1 (stereo unspecified) [MICONAZOLE]
0

What value of Hepatotoxicity (acute) has been reported for the following compound? Cc1oc(=O)oc1CN1CCN(c2cc3c(cc2F)c(=O)c(C(=O)O)c2n3C(C)S2)CC1 (stereo unspecified) [PRULIFLOXACIN]
0

What value of Hepatotoxicity (acute) has been reported for the following compound? CC(=O)c1ccc2c(c1)N(CCCN1CCC(CCO)CC1)c1ccccc1S2 [PIPERACETAZINE]
0

What value of Hepatotoxicity (acute) has been reported for the following compound? CC1(C)O[C@@H]2[C@@H](CO[C@@]3(COS(N)(=O)=O)OC(C)(C)O[C@@H]23)O1 [TOPIRAMATE]
0

###

- measurement_notes: Highest frequency of moderate liver toxicity observed during clinical trials, expressed as a percentage. [column '% BIOL' in source]
- cond: human
Hepatotoxicity (moderate) values by entry
Respond numerically; units are % and should not be typed.

Observe how each entry below is paired with its result.
>>> reported_value("CC(=O)N[C@@H]1[C@H](Oc2c3cc4cc2Oc2ccc(cc2Cl)[C@@H](O[C@@H]2O[C@@H](CO)[C@@H](O)[C@H](O)[C@@H]2NC(C)=O)[C@@H]2NC(=O)[C@H](NC(=O)[C@@H]4NC(=O)[C@H]4NC(=O)[C@@H](Cc5ccc(c(Cl)c5)O3)NC(=O)[C@H](N)c3ccc(O)c(c3)Oc3cc(O)cc4c3)c3ccc(O)c(c3)-c3c(O[C@H]4O[C@H](CO)[C@@H](O)[C@@H](O)[C@@H]4O)cc(O)cc3[C@@H](C(=O)O)NC2=O)O[C@@H](CO)[C@@H](O)[C@@H]1O")
26.9
>>> reported_value("CC(=O)OCC1=C(C(=O)O)N2C(=O)[C@@H](NC(=O)CC#N)[C@H]2SC1")
29.6

What value of Hepatotoxicity (moderate) has been reported for the following molecule? O=C(O)CCC(=O)c1ccc(-c2ccccc2)cc1
25

What value of Hepatotoxicity (moderate) has been reported for the following molecule? CCC[C@H](N[C@@H](C)C(=O)N1[C@H](C(=O)O)C[C@@H]2CCCC[C@@H]21)C(=O)OCC
12.2

What value of Hepatotoxicity (moderate) has been reported for the following molecule? Cn1c(=O)c2[nH]cnc2n(C)c1=O.O
55.6

###

- cond: human
Hepatotoxicity (association with vascular disease) values by entry
Answer with a bare number; do not write a unit.

Observe how each entry below is paired with its result.
>>> reported_value("N[C@@H]1CN(c2c(F)cc3c(=O)c(C(=O)O)cn([C@@H]4C[C@@H]4F)c3c2Cl)CC12CC2 [SITAFLOXACIN ANHYDROUS]")
0
>>> reported_value("C(=C\\c1ccccc1)/CN1CCN(C(c2ccccc2)c2ccccc2)CC1")
0
>>> reported_value("CC[C@]1(O)CC[C@H]2[C@@H]3CCC4=CC(=O)CC[C@@H]4[C@H]3CC[C@@]21C")
3
>>> reported_value("CS(=O)(=O)c1ccc(C2=C(c3ccccc3)C(=O)OC2)cc1")
0

What value of Hepatotoxicity (association with vascular disease) has been reported for the following compound? CCOC(=O)n1ccn(C)c1=S
0

###

Hepatotoxicity (association with vascular disease) values by entry
- cond: human
Answer with a bare number; do not write a unit.

>>> reported_value("NNc1nncc2ccccc12 [HYDRALAZINE]")
0

What value of Hepatotoxicity (association with vascular disease) has been reported for the following compound? Cc1cn([C@H]2C=C[C@@H](CO)O2)c(=O)[nH]c1=O [STAVUDINE]
0

What value of Hepatotoxicity (association with vascular disease) has been reported for the following compound? C[C@]1(O)CC[C@H]2[C@@H]3CCC4=CC(=O)CC[C@]4(C)[C@@]3(F)[C@@H](O)C[C@@]21C [FLUOXYMESTERONE]
6

What value of Hepatotoxicity (association with vascular disease) has been reported for the following compound? CCC[N+]12[C@H](O)[C@@H](CC)[C@@H]3C[C@H]1[C@@H]1N(C)c4ccccc4[C@]14C[C@H]2C3[C@H]4O (stereo partly drawn)
0

What value of Hepatotoxicity (association with vascular disease) has been reported for the following compound? Nc1ncn([C@@H]2O[C@H](CO)[C@@H](O)[C@H]2O)c(=O)n1 [AZACITIDINE]
0

What value of Hepatotoxicity (association with vascular disease) has been reported for the following compound? Cc1ncc(C[n+]2csc(CCO)c2C)c(N)n1 [THIAMINE ION]
0

What value of Hepatotoxicity (association with vascular disease) has been reported for the following compound? CCOC(=O)OC(C)OC(=O)[C@@H]1N2C(=O)[C@@H](NC(=O)[C@H](N)c3ccccc3)[C@H]2SC1(C)C (stereo partly drawn) [BACAMPICILLIN]
0

What value of Hepatotoxicity (association with vascular disease) has been reported for the following compound? COc1cc2nc(N(C)CCCNC(=O)C3CCCO3)nc(N)c2cc1OC (stereo not drawn) [ALFUZOSIN]
0

###

Hepatotoxicity (chronic liver disease) values by entry
- cond: human, serum, 4383 h
Answer with a bare number; do not write a unit.

>>> reported_value("PENTOSAN POLYSULFATE SODIUM")
0
>>> reported_value("GALLIUM")
0
>>> reported_value("IVERMECTIN")
0
>>> reported_value("NYSTATIN")
0

What value of Hepatotoxicity (chronic liver disease) has been reported for the following substance? CAPROMAB PENDETIDE
0

What value of Hepatotoxicity (chronic liver disease) has been reported for the following substance? EPOETIN ALFA
0

What value of Hepatotoxicity (chronic liver disease) has been reported for the following substance? SPIRAMYCIN
0

What value of Hepatotoxicity (chronic liver disease) has been reported for the following substance? SERRAPEPTASE
0

What value of Hepatotoxicity (chronic liver disease) has been reported for the following substance? GEMTUZUMAB OZOGAMICIN
0

What value of Hepatotoxicity (chronic liver disease) has been reported for the following substance? PEGLOTICASE
0

What value of Hepatotoxicity (chronic liver disease) has been reported for the following substance? POVIDONE-IODINE
0

What value of Hepatotoxicity (chronic liver disease) has been reported for the following substance? ETARACIZUMAB
0
